Reference for the values: patent US12180193B2

STUDY_SYSTEM: BRAF G466V (Homo sapiens, UniProt P15056, G466V)
Construct: expressed in transfected cells
Sequence (P15056 whole entry G466V): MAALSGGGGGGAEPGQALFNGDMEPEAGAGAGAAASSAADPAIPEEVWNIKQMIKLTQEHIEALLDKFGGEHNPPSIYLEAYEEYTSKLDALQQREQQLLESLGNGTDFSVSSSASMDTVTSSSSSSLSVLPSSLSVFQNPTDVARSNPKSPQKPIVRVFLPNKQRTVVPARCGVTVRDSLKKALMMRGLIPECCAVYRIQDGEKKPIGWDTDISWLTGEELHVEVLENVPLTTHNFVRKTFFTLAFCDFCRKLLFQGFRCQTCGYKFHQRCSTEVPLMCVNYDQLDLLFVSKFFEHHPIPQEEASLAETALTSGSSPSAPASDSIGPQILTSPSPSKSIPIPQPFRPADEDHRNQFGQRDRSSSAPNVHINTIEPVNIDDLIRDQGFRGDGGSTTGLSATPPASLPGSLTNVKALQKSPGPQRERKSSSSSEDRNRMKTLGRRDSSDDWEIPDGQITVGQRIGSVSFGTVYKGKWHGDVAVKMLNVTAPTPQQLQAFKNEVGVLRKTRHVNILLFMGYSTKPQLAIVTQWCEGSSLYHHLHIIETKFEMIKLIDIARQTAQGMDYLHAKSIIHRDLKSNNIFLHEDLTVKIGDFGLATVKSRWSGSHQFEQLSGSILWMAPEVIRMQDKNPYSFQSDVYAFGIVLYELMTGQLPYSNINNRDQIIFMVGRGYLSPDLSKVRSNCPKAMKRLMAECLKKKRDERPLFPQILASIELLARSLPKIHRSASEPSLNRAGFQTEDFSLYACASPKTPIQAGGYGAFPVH
TEST_DETAILS: Cellular assay of target protein degradation, T-Rex 293 cells stably transfected with HA-BRAF G466V (HA immunofluorescence, high content imaging)
Assay type: cell-based
ASSAY_SETUP: half maximal degradation, T-Rex 293 HA-BRAF G466V; read-out: BRaf G466V DC50
molecules and their reported DC50

Example molecules with recorded DC50:
[[record]]
molecule = "N#Cc1cc(-c2cnc3[nH]cc(C(=O)c4c(F)ccc(NS(=O)(=O)N5CC[C@@H](F)C5)c4F)c3c2)ccc1N1CCC(CN2CCC(c3ccc4c(c3)CN([C@H]3CCC(=O)NC3=O)C4=O)CC2)CC1"
study_system = "BRAF G466V (Homo sapiens, UniProt P15056, G466V)"
result = "< 1 nM"

[[record]]
molecule = "O=C1CCC(N2Cc3cc(CCCOCC4CCN(c5ccc(-c6cnc7[nH]cc(C(=O)c8c(F)ccc(NS(=O)(=O)N9CC[C@@H](F)C9)c8F)c7c6)cc5)CC4)ccc3C2=O)C(=O)N1 (stereo partly shown)"
study_system = "BRAF G466V (Homo sapiens, UniProt P15056, G466V)"
result = "1 to 10 nM"


Exercise: Tell me the measured DC50 of O=C1CCC(N2Cc3cc(C4CCN(C[C@H]5CCN(c6ccc(-c7cnc8[nH]cc(C(=O)c9c(F)ccc(NS(=O)(=O)N%10CC[C@@H](F)C%10)c9F)c8c7)cc6)C[C@H]5F)CC4)ccc3C2=O)C(=O)N1 (stereo partly shown) , please.
Key: < 1 nM

Exercise: If you can, please state the reported DC50 value of CN(C1CC1)S(=O)(=O)Nc1ccc(F)c(C(=O)c2c[nH]c3ncc(-c4ccc(N5CCC(CN6CCC(c7ccc8c(c7)CN([C@H]7CCC(=O)NC7=O)C8=O)CC6)CC5)cc4)cc23)c1F .
Key: 1 to 10 nM

Exercise: What does the data say about its DC50? Entry: O=C1CCC(N2Cc3cc(N4CCC(CN5CC(Cc6ncc(-c7cnc8[nH]cc(C(=O)c9c(F)ccc(NS(=O)(=O)N%10CC[C@@H](F)C%10)c9F)c8c7)cn6)C5)CC4)ccc3C2=O)C(=O)N1 (stereo partly shown)
Key: 1 to 10 nM

Exercise: Report DC50 for O=C1CCC(N2Cc3cc([C@H](O)CN4CC5(C4)CN(c4ccc(-c6cnc7[nH]cc(C(=O)c8c(F)ccc(NS(=O)(=O)N9CC[C@@H](F)C9)c8F)c7c6)cc4)C5)ccc3C2=O)C(=O)N1 (stereo partly shown) please.
Key: 1 to 10 nM

Exercise: // query DC50 value for entry O=C1CCC(N2Cc3cc(N4CCC(CCC5CCN(c6ccc(-c7cnc8[nH]cc(C(=O)c9c(F)ccc(NS(=O)(=O)N%10CC[C@@H](F)C%10)c9F)c8c7)cc6)CC5)CC4)ccc3C2=O)C(=O)N1 (stereo partly shown)
Key: > 30 nM

Exercise: Fill in the blank: the reported DC50 of O=C1CC[C@H](NC(=O)c2ccc(N3CCC(CN4CC5(C4)CN(c4ccc(-c6cnc7[nH]cc(C(=O)c8c(F)ccc(NS(=O)(=O)N9CC[C@@H](F)C9)c8F)c7c6)cc4)C5)CC3)cc2F)C(=O)N1 is ____.
Key: 1 to 10 nM

Exercise: Name the recorded DC50 for O=C1CCC(N2Cc3cc(N4CCC(CN5CC(C6(c7ccc(-c8cnc9[nH]cc(C(=O)c%10c(F)ccc(NS(=O)(=O)N%11CC[C@@H](F)C%11)c%10F)c9c8)cc7)CC6)C5)CC4)ccc3C2=O)C(=O)N1 (stereo partly shown) .
Key: 1 to 10 nM

Exercise: What does the data say about its DC50? Entry: O=C1CC[C@@H](NC(=O)c2ccc(N3CCN(CCc4ccc(-c5cnc6[nH]cc(C(=O)c7c(F)ccc(NS(=O)(=O)N8CC[C@@H](F)C8)c7F)c6c5)cc4)CC3)cc2F)C(=O)N1
Key: < 1 nM
